From: ChEMBL document CHEMBL3098092

biological target: MDR-1 (P-glycoprotein, ABCB1) (Homo sapiens, UniProt P08183); test: Inhibition of MDR-1 (unknown origin) expressed in human Caco2 cells using Calcein-AM at 50 uM preincubated for 30 mins by fluorescence based PDSP assay relative to control; assay type: cell-based; details: Caco-2 cells expressing MDR-1, probe Calcein-AM
Sequence (P08183 whole entry): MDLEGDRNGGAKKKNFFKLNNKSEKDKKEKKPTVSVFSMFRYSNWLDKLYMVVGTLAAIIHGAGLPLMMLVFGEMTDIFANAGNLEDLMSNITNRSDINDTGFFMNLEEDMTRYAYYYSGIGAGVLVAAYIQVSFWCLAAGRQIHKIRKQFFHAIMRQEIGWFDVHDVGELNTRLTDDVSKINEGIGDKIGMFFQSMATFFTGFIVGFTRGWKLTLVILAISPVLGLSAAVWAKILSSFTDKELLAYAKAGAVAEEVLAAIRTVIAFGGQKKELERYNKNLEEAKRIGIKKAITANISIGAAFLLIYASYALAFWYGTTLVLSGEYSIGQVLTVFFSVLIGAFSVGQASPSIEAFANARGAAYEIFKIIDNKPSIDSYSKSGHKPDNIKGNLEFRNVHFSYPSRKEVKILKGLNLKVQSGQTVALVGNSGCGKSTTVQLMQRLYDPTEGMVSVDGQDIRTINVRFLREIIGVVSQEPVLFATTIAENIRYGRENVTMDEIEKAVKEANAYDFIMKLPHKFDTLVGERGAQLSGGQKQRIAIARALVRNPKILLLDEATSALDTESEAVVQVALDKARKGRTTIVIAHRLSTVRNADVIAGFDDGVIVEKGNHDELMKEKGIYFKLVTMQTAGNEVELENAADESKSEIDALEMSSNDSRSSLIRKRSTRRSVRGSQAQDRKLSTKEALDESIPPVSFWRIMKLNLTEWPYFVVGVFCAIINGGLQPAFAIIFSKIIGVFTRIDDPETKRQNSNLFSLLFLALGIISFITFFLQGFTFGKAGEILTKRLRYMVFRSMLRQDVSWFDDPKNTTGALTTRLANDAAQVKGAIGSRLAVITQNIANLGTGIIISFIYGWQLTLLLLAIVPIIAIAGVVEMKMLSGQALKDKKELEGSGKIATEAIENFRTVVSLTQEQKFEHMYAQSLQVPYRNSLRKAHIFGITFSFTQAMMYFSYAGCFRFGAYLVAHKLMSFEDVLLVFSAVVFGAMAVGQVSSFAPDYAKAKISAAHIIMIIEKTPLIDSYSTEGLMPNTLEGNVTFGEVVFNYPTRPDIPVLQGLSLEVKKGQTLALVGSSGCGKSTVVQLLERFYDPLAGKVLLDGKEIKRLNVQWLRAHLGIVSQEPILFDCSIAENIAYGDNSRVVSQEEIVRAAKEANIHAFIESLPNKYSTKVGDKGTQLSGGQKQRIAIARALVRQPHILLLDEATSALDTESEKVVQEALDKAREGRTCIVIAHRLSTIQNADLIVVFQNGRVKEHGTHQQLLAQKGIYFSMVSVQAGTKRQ
ENDPOINT: inhibition at 30 min, 50 µM

May I ask what inhibition at 30 min, 50 µM has been recorded for CCOC(=O)C1=C(C)NC(C)=C(C(=O)NCCCCCCCCNS(=O)(=O)c2cccc3c(N(C)C)cccc23)C1c1c(-c2ccccc2)noc1C (stereo unspecified) ? 63%
